- system tested: T1, human LAP-TGFB1 Fc fusion (human)
- T1 construct: also called human LAP-TGFβ1-Fc; human LAP-TGFβ-Fc isoform 1
- T1 sequence (chain, as listed by the source limits assumed): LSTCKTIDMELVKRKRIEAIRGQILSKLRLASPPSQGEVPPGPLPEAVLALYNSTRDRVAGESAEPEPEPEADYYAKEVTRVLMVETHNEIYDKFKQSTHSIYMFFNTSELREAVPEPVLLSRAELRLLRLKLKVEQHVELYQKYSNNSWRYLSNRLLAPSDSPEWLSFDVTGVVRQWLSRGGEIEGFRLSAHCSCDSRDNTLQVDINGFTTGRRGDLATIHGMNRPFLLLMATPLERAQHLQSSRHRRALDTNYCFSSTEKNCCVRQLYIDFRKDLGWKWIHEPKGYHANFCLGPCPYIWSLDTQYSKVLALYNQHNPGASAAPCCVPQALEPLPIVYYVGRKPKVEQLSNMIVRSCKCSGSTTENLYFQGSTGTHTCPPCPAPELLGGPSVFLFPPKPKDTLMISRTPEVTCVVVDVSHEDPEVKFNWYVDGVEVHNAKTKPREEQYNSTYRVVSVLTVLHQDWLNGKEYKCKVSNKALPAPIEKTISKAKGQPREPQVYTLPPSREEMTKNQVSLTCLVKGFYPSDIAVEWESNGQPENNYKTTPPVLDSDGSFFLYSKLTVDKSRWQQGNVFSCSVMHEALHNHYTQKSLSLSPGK
- assay name: BLI off-rate screen
endpoint label: koff (s⁻¹)
Record the value in s⁻¹, omitting the unit from your answer.

[[record]]
binder = "VH T30Y (69BIT) (Fab, V domains shown) VH: EVQLVQSGAEVKKPGASVKVSCKASGYTFYSYWMHWVRQAPGQGLEWMGRIDPQSGGIKYAQKFQGRATLTVDTSTSTAYMELSRLRSDDTAVYYCARWDYGGYFDVWGQGTLVTVSS VL: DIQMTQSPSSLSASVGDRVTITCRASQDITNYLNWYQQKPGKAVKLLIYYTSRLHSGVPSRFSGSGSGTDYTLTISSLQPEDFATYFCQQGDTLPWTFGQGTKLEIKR"
result_value = 0.0365


Look up koff for this binder: VL T30Y (44BIT) (Fab, V domains shown) VH: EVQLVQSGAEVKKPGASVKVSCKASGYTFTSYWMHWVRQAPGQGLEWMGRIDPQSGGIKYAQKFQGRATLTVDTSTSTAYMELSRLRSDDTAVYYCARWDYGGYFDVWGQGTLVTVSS VL: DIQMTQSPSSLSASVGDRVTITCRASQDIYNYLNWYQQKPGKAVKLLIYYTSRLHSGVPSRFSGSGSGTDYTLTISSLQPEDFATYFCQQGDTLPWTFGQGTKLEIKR
0.0162
